experiment: Cellular viability qHTS for adrenocortical cancer (ACC) cell line NCI-H295R (AID 1963990); settings: CellTiter-Glo ATP luminescence, 48 h; series mostly up to 46.1 µM; further: nearly all actives have a fitted effect of over 60% in size
Inconclusive results are not listed. Activity calls are given as the source filed them. The call rests on the fitted dose curve; in most records, active means well fitted cell-killing curve with a large enough effect; inconclusive means small, poorly fitted or top-dose-only effect; inactive means flat fitted curve, though single readings scatter.
In this exercise, the only acceptable responses are active, inactive

Sample answers from the record:
# compound, class.name
data = [
    ("COc1cc(C(=O)NS(=O)(=O)c2ccccc2C)ccc1Cc1cn(C)c2ccc(NC(=O)OC3CCCC3)cc12", "active"),
    ("CC12CC3CC(C)(C1)CC(N)(C3)C2", "inactive"),
]

Ask | Given CCN(c1ccccc1)c1cc(NC)[n+](C)c(C)n1 , state the outcome it received in this test.
Reply | inactive

Ask | What was the test verdict on CCCNC(C)C(=O)Nc1c(C)csc1C(=O)OC (stereo not given) ?
Reply | inactive

Ask | Call for entry O=C(c1cncc(Br)c1)N1CCC(N2CCCC2)CC1 :
Reply | inactive

====

experiment: Viability qHTS for spleen associated tyrosine kinase inhibitor (SYKi) drug resistant MV4-11 cells (AID 1963824); conditions: SYKi-resistant MV4-11 viability, CellTiter-Glo, 72 h; series mostly up to 45 µM; further: nearly all actives have a fitted effect of over 35% in size
Inconclusive results are not listed. The source made the active and inactive calls. Calls come from the whole dose curve; as a rule, active = well fitted cell-killing curve with a large enough effect; inconclusive = small, poorly fitted or top-dose-only effect, or effect the other way; inactive = no such curve, though single readings can be large or run the other way.
Pick one: label 1 = active, label 0 = inactive

Previously resolved entries follow.
# molecule, class.name
rows = [
    ("CCOCCOC(=O)/C=C/c1ccc(OC)cc1", "label 0"),
    ("C[C@@H](OC[C@@]1(c2ccccc2)CC[C@]2(CCC(=O)N2)CN1)c1cc(C(F)(F)F)cc(C(F)(F)F)c1", "label 1"),
    ("CC(C)(O)/C=C1/C(=O)C(C)(C)C(=O)C(C)(C)C1(O)O[C@@H]1O[C@H](COC(=O)c2cc(O)c(O)c(O)c2)[C@@H](O)[C@H](O)[C@H]1O (stereo not given in full)", "label 0"),
    ("S=C(NCc1ccc2c(c1)OCO2)N1CCN(c2ncnc3c2oc2ccccc23)CC1", "label 1"),
    ("Cc1cnc(NC(=O)c2cc(Oc3cnc(C(=O)N(C)C)nc3)c3cc(C)oc3c2)cn1", "label 0"),
    ("N#Cc1ccc(-c2cnc3[nH]cc(NC(=O)c4cccnc4)c3c2)cc1", "label 1"),
]

Ask | Call for entry CCN(c1cc(-c2ccc(CN3CCOCC3)cc2)cc(C(=O)NCc2c(C)cc(C)[nH]c2=O)c1C)C1CCOCC1 :
Reply | label 1

Ask | Returns: the outcome recorded for COC(=O)[C@H]1[C@@H](O)[C@@]2(O)c3c(OC)cc(O[C@@H]4O[C@@H]([C@@H](O)CO)CO[C@H]4OC)cc3O[C@@]2(c2ccc(OC)cc2)[C@@H]1c1ccccc1 in this assay.
Reply | label 1

Ask | For CC(C)C[C@H](CO)Nc1nc(S[C@@H](C)c2ccccc2)nc2nc(N)sc12 , what call appears in the results of this test?
Reply | label 1

Ask | Identify the outcome logged in this assay for the molecule shown: Cc1nc2cc(-c3cc(F)cc(C#N)c3)ccc2s1
Reply | label 0

Ask | Each molecule tested received a call. Report the one for OC[C@@]1(O)CO[C@@H](OC[C@H]2O[C@@H](OCc3ccccc3)[C@H](O)[C@@H](O)[C@@H]2O)[C@@H]1O .
Reply | label 0

Ask | Look up the recorded call for CN1[C@@H]2CC[C@H]1CC(NC(=O)n1c(=O)[nH]c3ccccc31)C2 (stereo not given in full) in this test.
Reply | label 0

Ask | // param item: CN(C)CCC(c1ccccc1)c1ccccn1 (stereo not given) ; yields the recorded call
Reply | label 0

Ask | What outcome does the record of this test show for Cc1cc2c(F)c(Oc3ncnn4cc(OCC(C)OC(=O)C(C)N)c(C)c34)ccc2[nH]1 (stereo not given) ?
Reply | label 1

Ask | So what was the verdict on C=C(C)[C@@H]1CC[C@]2(C)CC[C@]3(C)C(CCC4[C@@]5(C)CC[C@H](O)C(C)(C)C5CC[C@]43C)C12 (stereo not given in full) in this test?
Reply | label 0

Ask | How was CS(=O)(=O)N1CCc2c(-c3cnc(N)nc3)nc(N3CCOCC3)nc21 classified in this test?
Reply | label 1

Ask | Recorded call for CC(=O)NC(CS)C(=O)O (stereo not given) ?
Reply | label 0
